Taken from PubChem BioAssay (NCATS).

- run.description: Cellular viability qHTS for adrenocortical cancer (ACC) cell line SW-13 (AID 1963989);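 also: cells grown in serum-free medium with ITS supplement; % is scaled to controls: 0 for no effect and ±100 for the full control effect; nearly all actives have a fitted effect of over 65% in size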
- protocol.conditions: SW-13 ACC cells viability, CellTiter-Glo, 48 h; active compounds read low
Records with an inconclusive call do not appear. Active and inactive are the calls of the source. Calls follow the shape of the dose curve; as a rule, active = well fitted cell-killing curve with a large enough effect; inconclusive = small, poorly fitted or top-dose-only effect; inactive = flat fitted curve, though single readings scatter.
value.kind: activity (max response)

Take a look at these entries with their results.
Nc1c(NC/C=C\COc2cc(CN3CCCCC3)ccn2)c(=O)c1=O :: 4.55% (inactive)
COC(=O)[C@@H]1[C@H]2C[C@H]3c4[nH]c5ccccc5c4CCN3C[C@@H]2CC[C@@H]1O :: -16.5% (inactive)
CCC(C(=O)OCCN(CC)CC)c1ccccc1 (stereo not given) :: 4.88% (inactive)
CC(=O)c1ccc(S(=O)(=O)NC(=O)NC2CCCCC2)cc1 :: 9.54% (inactive)
Clc1ccccc1CN1CCc2sccc2C1 :: 1.55% (inactive)

I would be grateful if you could provide activity (max response) for each of the following entries.
1. Cc1ccc(CN2CCNCC2)cc1NC(=O)CNc1ccc(F)c(F)c1
2. CC1=C(C(=O)OC(C)C)C(c2cccc([N+](=O)[O-])c2)C(C(=O)OC2CN(C(c3ccccc3)c3ccccc3)C2)=C(N)N1 (stereo not given)
3. Cc1ccc(C(=O)Oc2ccc(C(O)CNC(C)(C)C)cc2OC(=O)c2ccc(C)cc2)cc1 (stereo not given)
4. COc1ccccc1[C@H](c1cccc2ccccc12)[C@@](C)(C#N)C(=O)N1CCC(c2cccc(C(F)(F)F)c2)CC1
5. NCc1ccc(S(N)(=O)=O)cc1

Reply:
1. 11.8% (inactive)
2. -4.04% (inactive)
3. -16% (inactive)
4. -5.9% (inactive)
5. -8.11% (inactive)
